# System: Mus musculus
# PROCEDURE SUMMARY: Anticonvulsant activity in ip dosed Swiss albino mouse assessed as inhibition of PTZ-induced motor impairment
# Type: functional
MEASURED METRIC: ED50 (mg/kg)
Report the figure in mg/kg without appending any unit label.

Examples with their reported ED50 follow.
CCCC(CCC)C(=O)[O-].[Na+] [VALPROATE SODIUM]	149
COc1ccc(-n2c(Nc3nc(-c4ccc(Cl)cc4)cs3)n[nH]c2=S)cc1	179
CCC1(c2ccccc2)C(=O)NC(=O)NC1=O	13.2

Continue with the compound presented below.
QUERY: Would you kindly share the measured ED50 for `Cc1ccccc1-n1c(Nc2nc(-c3ccc(Br)cc3)cs2)n[nH]c1=S` ?
RESULT: 81.6

====

# Tested on: Mus musculus
# PROCEDURE SUMMARY: Anticonvulsant activity in ip dosed Swiss albino mouse assessed as inhibition of maximum electric shock-induced motor impairment after 4 hrs
# Format: functional
# TEST CONDITIONS: read-out: MED
Item-by-item account of minimal effective dose
Report the figure in mg/kg without appending any unit label.

Examples with their reported minimal effective dose follow.
COc1ccc(-n2c(Nc3nc(-c4ccc([N+](=O)[O-])cc4)cs3)n[nH]c2=S)cc1	300
Cc1ccc(-n2c(Nc3nc(-c4ccc([N+](=O)[O-])cc4)cs3)n[nH]c2=S)cc1	300
COc1ccc(-n2c(Nc3nc(-c4ccccc4)cs3)n[nH]c2=S)cc1	100
CCC1(c2ccccc2)C(=O)NC(=O)NC1=O	30
S=c1[nH]nc(Nc2nc(-c3ccc(Cl)cc3)cs2)n1-c1ccccc1	300
S=c1[nH]nc(Nc2nc(-c3ccc(Br)cc3)cs2)n1-c1ccccc1	300
COc1ccc(-n2c(Nc3nc(-c4ccc(Cl)cc4)cs3)n[nH]c2=S)cc1	100
Cc1ccc(-n2c(Nc3nc(-c4ccc(Br)cc4)cs3)n[nH]c2=S)cc1	300
Cc1ccc(-n2c(Nc3nc(-c4ccc(Cl)cc4)cs3)n[nH]c2=S)cc1	300
O=C1NC(=O)C(c2ccccc2)(c2ccccc2)N1	30

QUERY: Would you kindly share the measured minimal effective dose for `O=[N+]([O-])c1ccc(-c2csc(Nc3n[nH]c(=S)n3-c3ccccc3)n2)cc1` ?
RESULT: 300

====

Item-by-item account of TD50
# PROCEDURE SUMMARY: Neurotoxicity in ip dosed Swiss albino mouse
# Type: toxicity, organism-based
# TEST CONDITIONS: in vivo
Report the figure in mg/kg without appending any unit label.

COc1ccc(-n2c(Nc3nc(-c4ccc(Cl)cc4)cs3)n[nH]c2=S)cc1	439

Continue with the compound presented below.
QUERY: Would you kindly share the measured TD50 for `Cc1ccccc1-n1c(Nc2nc(-c3ccc(Br)cc3)cs2)n[nH]c1=S` ?
RESULT: 684

====

# PROCEDURE SUMMARY: Neurotoxicity in ip dosed Swiss albino mouse after 0.5 hrs
# Type: toxicity, organism-based
# TEST CONDITIONS: in vivo
MEASURED METRIC: MTD at 0.5 h (mg/kg)
Report the figure in mg/kg without appending any unit label.

Examples with their reported MTD at 0.5 h follow.
Cc1ccccc1-n1c(Nc2nc(-c3ccc([N+](=O)[O-])cc3)cs2)n[nH]c1=S	300
COc1ccccc1-n1c(Nc2nc(-c3ccc(Br)cc3)cs2)n[nH]c1=S	100
Cc1ccc(-n2c(Nc3nc(-c4ccc([N+](=O)[O-])cc4)cs3)n[nH]c2=S)cc1	100
COc1ccccc1-n1c(Nc2nc(-c3ccc([N+](=O)[O-])cc3)cs2)n[nH]c1=S	100

QUERY: Would you kindly share the measured MTD at 0.5 h for `O=[N+]([O-])c1ccc(-c2csc(Nc3n[nH]c(=S)n3-c3ccccc3)n2)cc1` ?
RESULT: 300

====

Item-by-item account of MTD at 4 h
# PROCEDURE SUMMARY: Neurotoxicity in ip dosed Swiss albino mouse after 4 hrs
# Type: toxicity, organism-based
# TEST CONDITIONS: in vivo
Report the figure in mg/kg without appending any unit label.

COc1ccccc1-n1c(Nc2nc(-c3ccc(Br)cc3)cs2)n[nH]c1=S	300
O=[N+]([O-])c1ccc(-c2csc(Nc3n[nH]c(=S)n3-c3ccccc3)n2)cc1	300
Cc1ccccc1-n1c(Nc2nc(-c3ccccc3)cs2)n[nH]c1=S	300

QUERY: Would you kindly share the measured MTD at 4 h for `COc1ccccc1-n1c(Nc2nc(-c3ccc([N+](=O)[O-])cc3)cs2)n[nH]c1=S` ?
RESULT: 300

QUERY: Would you kindly share the measured MTD at 4 h for `CCC1(c2ccccc2)C(=O)NC(=O)NC1=O` ?
RESULT: 300

QUERY: Would you kindly share the measured MTD at 4 h for `COc1ccc(-n2c(Nc3nc(-c4ccc([N+](=O)[O-])cc4)cs3)n[nH]c2=S)cc1` ?
RESULT: 300

QUERY: Would you kindly share the measured MTD at 4 h for `S=c1[nH]nc(Nc2nc(-c3ccc(Br)cc3)cs2)n1-c1ccccc1` ?
RESULT: 300

QUERY: Would you kindly share the measured MTD at 4 h for `Cc1ccc(-n2c(Nc3nc(-c4ccc(Br)cc4)cs3)n[nH]c2=S)cc1` ?
RESULT: 100

QUERY: Would you kindly share the measured MTD at 4 h for `Cc1ccccc1-n1c(Nc2nc(-c3ccc(Cl)cc3)cs2)n[nH]c1=S` ?
RESULT: 300

QUERY: Would you kindly share the measured MTD at 4 h for `Cc1ccccc1-n1c(Nc2nc(-c3ccc([N+](=O)[O-])cc3)cs2)n[nH]c1=S` ?
RESULT: 100

QUERY: Would you kindly share the measured MTD at 4 h for `O=C1NC(=O)C(c2ccccc2)(c2ccccc2)N1` ?
RESULT: 100

====

# PROCEDURE SUMMARY: Neurotoxicity in ip dosed Swiss albino mouse after 0.5 hrs
# Type: toxicity, organism-based
# TEST CONDITIONS: in vivo
MEASURED METRIC: MTD at 0.5 h (mg/kg)
Report the figure in mg/kg without appending any unit label.

Examples with their reported MTD at 0.5 h follow.
CCC1(c2ccccc2)C(=O)NC(=O)NC1=O	100
O=C1NC(=O)C(c2ccccc2)(c2ccccc2)N1	100
COc1ccccc1-n1c(Nc2nc(-c3ccc(Cl)cc3)cs2)n[nH]c1=S	300

QUERY: Would you kindly share the measured MTD at 0.5 h for `Cc1ccccc1-n1c(Nc2nc(-c3ccc(Cl)cc3)cs2)n[nH]c1=S` ?
RESULT: 300

====

Item-by-item account of minimal effective dose
# Test system: Mus musculus
# PROCEDURE SUMMARY: Anticonvulsant activity in ip dosed Swiss albino mouse assessed as inhibition of maximum electric shock-induced motor impairment after 4 hrs
# Assay type: functional
# TEST CONDITIONS: read-out: MED
Write down the value, and be sure its unit follows.

Examples with their reported minimal effective dose follow.
COc1ccccc1-n1c(Nc2nc(-c3ccccc3)cs2)n[nH]c1=S	300 mg/kg
Cc1ccccc1-n1c(Nc2nc(-c3ccc([N+](=O)[O-])cc3)cs2)n[nH]c1=S	100 mg/kg
COc1ccccc1-n1c(Nc2nc(-c3ccc(Br)cc3)cs2)n[nH]c1=S	300 mg/kg
COc1ccccc1-n1c(Nc2nc(-c3ccc([N+](=O)[O-])cc3)cs2)n[nH]c1=S	100 mg/kg
COc1ccc(-n2c(Nc3nc(-c4ccc(Br)cc4)cs3)n[nH]c2=S)cc1	300 mg/kg

QUERY: minimal effective dose of `Cc1ccc(-n2c(Nc3nc(-c4ccccc4)cs3)n[nH]c2=S)cc1` on Mus musculus?
RESULT: 300 mg/kg

QUERY: minimal effective dose of `Cc1ccccc1-n1c(Nc2nc(-c3ccc(Br)cc3)cs2)n[nH]c1=S` on Mus musculus?
RESULT: 30 mg/kg

QUERY: minimal effective dose of `COc1ccccc1-n1c(Nc2nc(-c3ccc(Cl)cc3)cs2)n[nH]c1=S` on Mus musculus?
RESULT: 100 mg/kg

====

Item-by-item account of MTD at 4 h
# PROCEDURE SUMMARY: Neurotoxicity in ip dosed Swiss albino mouse after 4 hrs
# Format: toxicity, organism-based
# TEST CONDITIONS: in vivo
Report the figure in mg/kg without appending any unit label.

Examples with their reported MTD at 4 h follow.
Cc1ccc(-n2c(Nc3nc(-c4ccc([N+](=O)[O-])cc4)cs3)n[nH]c2=S)cc1	100
S=c1[nH]nc(Nc2nc(-c3ccccc3)cs2)n1-c1ccccc1	300

Continue with the compound presented below.
QUERY: Would you kindly share the measured MTD at 4 h for `Cc1ccc(-n2c(Nc3nc(-c4ccc(Cl)cc4)cs3)n[nH]c2=S)cc1` ?
RESULT: 300
